Test system: Yellow fever virus (YFV)
Conditions: Huh7 cells without virus; test compounds
test_readout: CC50

compound | result
Nc1ccn([C@@H]2OC(CO)=C[C@H]2O)c(=O)n1 [AB21650, 3′-deoxy-3′,4′-didehydro cytidine] | > 2000 µM
O=c1ccn([C@@H]2OC(CO)=C[C@H]2O)c(=O)[nH]1 [AB21649] | > 2000 µM

====

pEC50 values by entry
Tested on: Rift Valley fever virus (RVFV)
Assay: microbe, parasite or virus in culture
Details: Vero 76
pEC50: −log10 of the molar value.

compound | pEC50
Nc1nc2c(ncn2[C@@H]2OC(CO)=CC2O)c(=O)[nH]1 (some centres unmarked) [AB21651] | < 2.70
Nc1ccn([C@@H]2OC(CO)=C[C@H]2O)c(=O)n1 [AB21650, 3′-deoxy-3′,4′-didehydro cytidine] | < 2.70

====

Assay: in vitro
Details: human, s9, T1/2
test_readout: half-life at 1 μM (h)

compound | test_readout | number
CCCCCCCCCCCCCCCCOCCCOP(=O)(O)OCC1=CC(O)C(n2ccc(=O)[nH]c2=O)O1 (stereo not drawn) | half-life at 1 μM | 4.41
CCCCCCCCCCCCCCCCOCCCOP(=O)(O)OCC1=C[C@H](O)[C@H](n2cnc3c(=O)[nH]c(N)nc32)O1 | half-life at 1 μM | 3.31
CCCCCCCCCCCCCCCCOCCCOP(=O)(O)CO[C@H](CO)Cn1ccc(N)nc1=O | half-life at 1 μM | 4.1

====

In this section we review reported CC50 values for a set of compounds.
Assay: in vitro
Details: African green monkey

compound | relation_symbol | CC50 (µM)
CCCCCCCCCCCCCCCCOCCCOP(=O)(O)OCC1=C[C@H](O)[C@H](n2cnc3c(=O)[nH]c(N)nc32)O1 [AB23040] | = | 80.7
CCCCCCCCCCCCCCCCOCCCOP(=O)(O)OCC1=CC(O)C(n2ccc(=O)[nH]c2=O)O1 (stereo not shown) [AB23039] | = | 71.8
CCCCCCCCCCCCCCCCOCCCOP(=O)(O)CO[C@H](CO)Cn1ccc(N)nc1=O [BCV, Brincidofovir] | = | 9.25
Nc1ccn(C[C@@H](CO)OCP(=O)(O)O)c(=O)n1 [CDV, Cidofovir, reference compound] | > | 150

====

Experiment: in vitro
Conditions: both, human, plasma
The following compounds are shown together with reported half-life at 0.75 μM values.

compound | half-life at 0.75 μM
CCCCCCCCCCCCCCCCOCCCOP(=O)(O)CO[C@H](CO)Cn1ccc(N)nc1=O | > 9.3 h
CCCCCCCCCCCCCCCCOCCCOP(=O)(O)OCC1=CC(O)C(n2ccc(=O)[nH]c2=O)O1 (stereo not drawn) | > 9.3 h
CCCCCCCCCCCCCCCCOCCCOP(=O)(O)OCC1=C[C@H](O)[C@H](n2cnc3c(=O)[nH]c(N)nc32)O1 | > 9.3 h

====

Test: in vivo
Conditions: male, Sprague-Dawley, rat, iv, 10 mg/kg, Cmax
Measured Cmax by item
test_readout: Cmax (µM)

structure_string | test_readout | number
CCCCCCCCCCCCCCCCOCCCOP(=O)(O)OCC1=C[C@H](O)[C@H](n2cnc3c(=O)[nH]c(N)nc32)O1 | Cmax | 3.65
CCCCCCCCCCCCCCCCOCCCOP(=O)(O)CO[C@H](CO)Cn1ccc(N)nc1=O | Cmax | 3.76

====

Test system: MOLT-3 cells

compound | CC50
CCC(CC)COC(=O)[C@H](C)N[P@](=O)(OCC1=CC(O)C(n2ccc(=O)[nH]c2=O)O1)Oc1ccccc1 (stereo partly shown) | 55.4 µM

====

In what follows, each item is paired with its CC50 for influenza/California/07/2009 (H1N1)pdm09.
test_readout: CC50 (µM)

molecule | relation_symbol | number
CC(C)(C)C(=O)SCCOP(=O)(OCCSC(=O)C(C)(C)C)OCC1=CC(O)C(n2cnc3c(N)ncnc32)O1 (stereo not drawn) [SATE-ddhA] | = | 180
CC(C)(C)C(=O)SCCOP(=O)(OCCSC(=O)C(C)(C)C)OCC1=CC(O)C(n2ccc(N)nc2=O)O1 (stereo not drawn) [SATE-ddhC] | = | 550
CC(C)(C)C(=O)SCCOP(=O)(OCCSC(=O)C(C)(C)C)OCC1=CC(O)C(n2cnc3c(=O)[nH]cnc32)O1 (stereo not drawn) [SATE-ddhI] | > | 1000
CC(C)(C)C(=O)SCCOP(=O)(OCCSC(=O)C(C)(C)C)OCC1=CC(O)C(n2ccc(=O)[nH]c2=O)O1 (stereo not drawn) [SATE-ddhU] | = | 560
CC(C)(C)C(=O)SCCOP(=O)(OCCSC(=O)C(C)(C)C)OCC1=CC(O)C(n2cnc3c(=O)[nH]c(N)nc32)O1 (stereo not drawn) [SATE-ddhG] | > | 1000

====

For reference, CC50 measured on Epstein-Barr virus (EBV), Akata strain:

compound | measurement_units | relation_symbol | CC50
CC(C)(C)C(=O)SCCOP(=O)(OCCSC(=O)C(C)(C)C)OCC1=CC(O)C(n2cnc3c(=O)[nH]cnc32)O1 (stereo not drawn) [SATE-ddhI] | µM | > | 150
C[C@H](Cn1cnc2c(N)ncnc21)OCP(=O)(O)O [TNV, reference compound] | µM | > | 150
CC(C)(C)C(=O)SCCOP(=O)(OCCSC(=O)C(C)(C)C)OCC1=CC(O)C(n2ccc(=O)[nH]c2=O)O1 (stereo not drawn) [SATE-ddhU] | µM | = | 109
CC(C)(C)C(=O)SCCOP(=O)(OCCSC(=O)C(C)(C)C)OCC1=CC(O)C(n2cnc3c(=O)[nH]c(N)nc32)O1 (stereo not drawn) [SATE-ddhG] | µM | = | 106
CC(C)(C)C(=O)SCCOP(=O)(OCCSC(=O)C(C)(C)C)OCC1=CC(O)C(n2cnc3c(N)ncnc32)O1 (stereo not drawn) [SATE-ddhA] | µM | = | 55.8
CC(C)(C)C(=O)SCCOP(=O)(OCCSC(=O)C(C)(C)C)OCC1=CC(O)C(n2ccc(N)nc2=O)O1 (stereo not drawn) [SATE-ddhC] | µM | = | 124

====

Test: in vivo
Conditions: male, Sprague-Dawley, rat, po, 10 mg/kg

structure_string | measurement_units | concentration at 0.5 h
CCCCCCCCCCCCCCCCOCCCOP(=O)(O)CO[C@H](CO)Cn1ccc(N)nc1=O | µM | 0.021
CCCCCCCCCCCCCCCCOCCCOP(=O)(O)OCC1=C[C@H](O)[C@H](n2cnc3c(=O)[nH]c(N)nc32)O1 | µM | 0.038

====

Tested on: SARS-CoV-2 (USA-WA1/2020)
Conditions: SARS-CoV-2; SI = CC50/EC50
Residues, ends and D or L forms follow the SMILES beside them. *: point of attachment. Cbz = O=C(OCc1ccccc1)*; CH2F = FC*
test_readout: SI50 (SI)

compound | relation_symbol | number
CC(C)(C)C(=O)SCCOP(=O)(OCCSC(=O)C(C)(C)C)OCC1=CC(O)C(n2cnc3c(=O)[nH]c(N)nc32)O1 (stereo not drawn) [SATE-ddhG] | = | 0
CC(C)(C)C(=O)SCCOP(=O)(OCCSC(=O)C(C)(C)C)OCC1=CC(O)C(n2ccc(=O)[nH]c2=O)O1 (stereo not drawn) [SATE-ddhU] | = | 3.5
CC(C)CC(NC(=O)OCc1ccccc1)C(=O)NC(CCC(=O)N(C)C)C(=O)CF (stereo not drawn) [M128533, Z-Leu-Gln(NMe2)-FMK, reference compound] (Cbz-Leu-Glu(NMe2)-CH2F; configuration not given here) | > | 1100
CC(C)(C)C(=O)SCCOP(=O)(OCCSC(=O)C(C)(C)C)OCC1=CC(O)C(n2cnc3c(N)ncnc32)O1 (stereo not drawn) [SATE-ddhA] | = | 0
CC(C)(C)C(=O)SCCOP(=O)(OCCSC(=O)C(C)(C)C)OCC1=CC(O)C(n2ccc(N)nc2=O)O1 (stereo not drawn) [SATE-ddhC] | = | 0
CC(C)(C)C(=O)SCCOP(=O)(OCCSC(=O)C(C)(C)C)OCC1=CC(O)C(n2cnc3c(=O)[nH]cnc32)O1 (stereo not drawn) [SATE-ddhI] | = | 0

====

Assay: in vitro
Settings: dog

compound | CC50
Nc1nc2c(ncn2[C@@H]2OC(CO)=CC2O)c(=O)[nH]1 (stereo partly shown) | > 2000 µM

====

Test system: SARS-CoV-2 (USA-WA1/2020)

compound | relation_symbol | CC50 / µM
CC(C)(C)C(=O)SCCOP(=O)(OCCSC(=O)C(C)(C)C)OCC1=CC(O)C(n2cnc3c(N)ncnc32)O1 (stereo not drawn) [SATE-ddhA] | = | 49
CC(C)(C)C(=O)SCCOP(=O)(OCCSC(=O)C(C)(C)C)OCC1=CC(O)C(n2cnc3c(=O)[nH]c(N)nc32)O1 (stereo not drawn) [SATE-ddhG] | > | 1000
CC(C)(C)C(=O)SCCOP(=O)(OCCSC(=O)C(C)(C)C)OCC1=CC(O)C(n2ccc(=O)[nH]c2=O)O1 (stereo not drawn) [SATE-ddhU] | = | 76
CC(C)(C)C(=O)SCCOP(=O)(OCCSC(=O)C(C)(C)C)OCC1=CC(O)C(n2ccc(N)nc2=O)O1 (stereo not drawn) [SATE-ddhC] | = | 410
CC(C)(C)C(=O)SCCOP(=O)(OCCSC(=O)C(C)(C)C)OCC1=CC(O)C(n2cnc3c(=O)[nH]cnc32)O1 (stereo not drawn) [SATE-ddhI] | = | 530
